# tested_system: Human ST2-fc (human) (UniProt Q01638)
# protocol_details: competition ELISA, coated ST2-fc, competitor IL33-his
# key: entry, value: Relative activity compared with CNTO7160
Entry rule: numbers only, all in %.

Answered cases to consult:
5888-153-H3L2 (antibody, human IgG4 S228P, kappa, V domains shown, Humanized antibody) VH: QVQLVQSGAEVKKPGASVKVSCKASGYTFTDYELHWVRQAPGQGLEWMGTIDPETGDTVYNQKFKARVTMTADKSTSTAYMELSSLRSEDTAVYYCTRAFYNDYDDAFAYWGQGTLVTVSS VL: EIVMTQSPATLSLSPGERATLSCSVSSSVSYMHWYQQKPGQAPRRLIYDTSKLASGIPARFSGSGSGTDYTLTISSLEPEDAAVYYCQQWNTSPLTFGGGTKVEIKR; 152
5888-153-H0L0 (antibody, human IgG4 S228P, kappa, V domains shown) VH: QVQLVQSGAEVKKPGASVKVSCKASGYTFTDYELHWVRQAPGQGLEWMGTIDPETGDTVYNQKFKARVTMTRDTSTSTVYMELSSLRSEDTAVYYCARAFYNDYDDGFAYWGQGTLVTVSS VL: EIVLTQSPATLSLSPGERATLSCSVSSSVSYMHWYQQKPGQAPRLLIYDTSKLASGIPARFSGSGSGTDFTLTISSLEPEDFAVYYCQQWNSSPLTFGGGTKVEIKR; 44.3
5888-116-H3L1 (antibody, human IgG4 S228P, kappa, V domains shown) VH: QVQLVQSGAEVKKPGASVKVSCKASGYTFTDSEMYWVRQAPGQGLEWMGAIDPETGDTAFNQKFKGRVTMTADKSTSTAYMELSSLRSEDTAVYYCTRAFDNDNDDAFAYWGQGTMVTVSS VL: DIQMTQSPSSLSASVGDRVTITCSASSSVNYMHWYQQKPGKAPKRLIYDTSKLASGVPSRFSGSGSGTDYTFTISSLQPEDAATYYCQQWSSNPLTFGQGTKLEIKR; 187
5888-379-H2L1 (antibody, human IgG4 S228P, kappa, V domains shown, Humanized antibody) VH: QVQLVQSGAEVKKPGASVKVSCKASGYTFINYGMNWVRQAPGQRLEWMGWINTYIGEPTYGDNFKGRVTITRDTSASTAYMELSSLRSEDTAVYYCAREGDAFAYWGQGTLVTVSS VL: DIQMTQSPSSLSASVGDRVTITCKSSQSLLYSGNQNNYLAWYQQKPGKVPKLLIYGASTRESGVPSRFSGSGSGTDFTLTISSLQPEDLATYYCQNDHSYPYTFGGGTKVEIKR; 206
5888-153-H0L2 (antibody, human IgG4 S228P, kappa, V domains shown) VH: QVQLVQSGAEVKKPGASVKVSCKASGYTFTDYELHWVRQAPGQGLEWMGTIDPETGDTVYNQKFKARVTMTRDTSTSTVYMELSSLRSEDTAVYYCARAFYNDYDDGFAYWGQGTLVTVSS VL: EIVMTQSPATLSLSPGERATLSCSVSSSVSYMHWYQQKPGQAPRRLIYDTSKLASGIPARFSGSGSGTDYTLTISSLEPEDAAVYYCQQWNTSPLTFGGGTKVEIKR; 240

Return Relative activity compared with CNTO7160 for the following binder: 5888-379-H1L0 (antibody, human IgG4 S228P, kappa, V domains shown, Humanized antibody) VH: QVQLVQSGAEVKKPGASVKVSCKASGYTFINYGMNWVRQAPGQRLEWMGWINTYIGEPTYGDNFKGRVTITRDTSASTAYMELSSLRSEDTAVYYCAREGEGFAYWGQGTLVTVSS VL: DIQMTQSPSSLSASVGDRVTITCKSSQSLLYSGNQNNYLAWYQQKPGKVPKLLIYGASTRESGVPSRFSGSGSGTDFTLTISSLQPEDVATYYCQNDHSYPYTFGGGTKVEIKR
188

Consider the binder 5887-41-H1L1 (antibody, human IgG4 S228P, kappa, V domains shown) VH: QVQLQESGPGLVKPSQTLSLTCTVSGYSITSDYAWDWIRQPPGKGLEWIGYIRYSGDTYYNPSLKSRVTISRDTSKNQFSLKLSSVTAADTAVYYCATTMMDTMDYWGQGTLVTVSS VL: DIVLTQSPASLAVSPGQRATITCRASKSVSTSGNSYMHWYQQKPGQPPKLLIYLASNLESGVPARFSGSGSGTDFTLTINPVEANDAANYYCQHSREFPLTFGQGTKLEIKR and give its recorded Relative activity compared with CNTO7160.
56.2

For the binder 5888-153-H3L1 (antibody, human IgG4 S228P, kappa, V domains shown, Humanized antibody) VH: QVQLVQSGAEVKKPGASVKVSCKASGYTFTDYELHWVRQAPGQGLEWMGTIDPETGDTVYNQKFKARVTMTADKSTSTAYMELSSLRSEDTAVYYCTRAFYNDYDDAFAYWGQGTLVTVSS VL: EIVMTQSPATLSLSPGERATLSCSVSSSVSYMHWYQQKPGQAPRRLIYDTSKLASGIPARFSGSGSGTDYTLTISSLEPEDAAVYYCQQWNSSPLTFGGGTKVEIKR , give its measured Relative activity compared with CNTO7160 value.
228

State, in one line, measured Relative activity compared with CNTO7160 of 5887-537-H1L0 (antibody, human IgG4 S228P, kappa, V domains shown) VH: QVTLKESGPTLVKPTQTLTLTCTFSGFSLSTSGMGVGWIRQPPGKALEWLAHIWWDDVKQYNPALKSRLTITKDTSKSQVVLTMTNMDPVDTATYYCARIGGDYDYFDFWGQGTTVTVSS VL: DIVLTQSPASLAVSPGQRATITCRASESVEYSGTSLMQWYQQKPGQPPKLLIYVASNVESGVPARFSGSGSGTDFTLTINPVEANDTANYYCQQSRKVPWTFGQGTKLEIKR
1210

Please list Relative activity compared with CNTO7160 recorded for the binder 5888-153-H1L0 (antibody, human IgG4 S228P, kappa, V domains shown) VH: QVQLVQSGAEVKKPGASVKVSCKASGYTFTDYELHWVRQAPGQGLEWMGTIDPETGDTVYNQKFKARVTMTADKSTSTAYMELSSLRSEDTAVYYCTRAFYNDYDDGFAYWGQGTLVTVSS VL: EIVLTQSPATLSLSPGERATLSCSVSSSVSYMHWYQQKPGQAPRLLIYDTSKLASGIPARFSGSGSGTDFTLTISSLEPEDFAVYYCQQWNSSPLTFGGGTKVEIKR
86.2
